Taken from ChEMBL document CHEMBL5728699.

Kindly state IC50 for each of the entries shown.
# EXPERIMENTAL_TARGET: UniProt:P00746
# PROTOCOL_DETAILS: Human Factor D Assay: Human Factor D (purified from human serum, Complement Technology, Inc.) at 80 nM final concentration is incubated with test compound at various concentrations for 5 min at room temperature in 50 mM Tris, 1M NaCl, pH 7.5. A synthetic substrate Z-L-Lys-SBzl and DTNB (Ellman's reagent) are added to final concentrations of 100 µM each. Absorbance at 405 nm (A405) is recorded at 30 second intervals for 30 minutes using a microplate spectrophotometer. IC50 values are calculated by nonlinear regression of Complement Factor D reaction rates as a function of test compound concentration.

Solved cases below.
{"columns": ["MOLECULE", "EXPERIMENTAL_TARGET", "IC50"],
 "data": [
  ["CC(=O)c1nn(CC(=O)N2[C@H]3C[C@]4(C[C@@H]24)CN(C)CC(O)C(O)COCc2ccc(Br)nc2NC3=O)c2cnc(-c3cnc(C)nc3)cc12 (some centres not stated)", "UniProt:P00746", "< 1000 nM"],
  ["CC(=O)c1nn2c3c(cc(-c4cnc(C)nc4)cc13)CCCCCC/C=C\\c1cn(nn1)C[C@@]13C[C@@H](C(=O)Nc4nc(Br)ccc4C)N(C(=O)C2)[C@@H]1C3", "UniProt:P00746", "< 1000 nM"],
  ["CC(=O)c1nn(CC(=O)N2[C@H]3C[C@]4(C[C@@H]24)CN2CC(CCCOCc4ccc(Br)nc4NC3=O)C2)c2c(C)cc(-c3cnc(C)nc3)cc12", "UniProt:P00746", "< 1000 nM"],
  ["C=C1COCc2ccc(Br)nc2NC(=O)[C@@H]2C[C@]3(C[C@H]3N2C(=O)Cn2nc(C(C)=O)c3cc(-c4cnc(C)nc4)ncc32)Cn2cc1cn2", "UniProt:P00746", "< 1000 nM"],
  ["CC(=O)c1nn(CC(=O)N2[C@H]3C[C@]4(C[C@@H]24)CN(C)CCCC/C=C\\Cc2ccc(Br)nc2NC3=O)c2c(CF)cc(-c3cnc(C)nc3)cc12", "UniProt:P00746", "< 1000 nM"]
]}

For every item in the list below, what is its measured IC50?
1. CC(=O)N[C@H]1C/C=C\COCc2ccc(Br)nc2NC(=O)[C@@H]2C[C@@]3(CNC1=O)C[C@H]3N2C(=O)Cn1nc(C(C)=O)c2cc(-c3cnc(C)nc3)ccc21
2. CC(=O)c1nn2c3c(cc(-c4cnc(C)nc4)cc13)C/C=C\CCCC(=O)NC[C@@]13C[C@@H](C(=O)Nc4nc(C(F)(F)F)ccc4C)N(C(=O)C2)[C@@H]1C3

Found:
< 1000 nM
< 1000 nM

###

# EXPERIMENTAL_TARGET: Complement factor D (Homo sapiens)
# Sequence (P00746 whole entry): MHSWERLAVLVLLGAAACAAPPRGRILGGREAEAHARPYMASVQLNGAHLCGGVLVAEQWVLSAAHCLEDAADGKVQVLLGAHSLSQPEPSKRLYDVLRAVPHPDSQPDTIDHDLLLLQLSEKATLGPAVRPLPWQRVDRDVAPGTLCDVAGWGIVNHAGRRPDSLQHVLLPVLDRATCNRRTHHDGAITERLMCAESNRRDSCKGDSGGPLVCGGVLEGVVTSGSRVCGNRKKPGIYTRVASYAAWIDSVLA
# PROTOCOL_DETAILS: Human Factor D Assay: Human Factor D (purified from human serum, Complement Technology, Inc.) at 80 nM final concentration is incubated with test compound at various concentrations for 5 min at room temperature in 50 mM Tris, 1M NaCl, pH 7.5. A synthetic substrate Z-L-Lys-SBzl and DTNB (Ellman's reagent) are added to final concentrations of 100 µM each. Absorbance at 405 nm (A405) is recorded at 30 second intervals for 30 minutes using a microplate spectrophotometer. IC50 values are calculated by nonlinear regression of Complement Factor D reaction rates as a function of test compound concentration.
pIC50: −log10 of the molar value.
Task for the reader: assign each of the following compounds its reported pIC50.

Some compounds with recorded pIC50:
{"columns": ["SMILES_INPUT", "pIC50"],
 "data": [
  ["CC(=O)c1nn2c3c(cc(-c4cnc(C)nc4)cc13)CC/C=C\\CCCC(=O)NC[C@@]13C[C@@H](C(=O)Nc4nc(Br)ccc4C)N(C(=O)C2)[C@@H]1C3", "> 6.00"],
  ["CC(=O)c1nn(CC(=O)N2[C@H]3C[C@@]4(/C=C\\CCCCN(C)C(=O)Cc5ccc(Br)nc5NC3=O)C[C@@H]24)c2ccc(-c3cnc(C)nc3)cc12", "> 6.00"]
]}

Below: the item to evaluate.
Lookup: Which pIC50 is reported for this compound? CC(=O)c1nn2c3c(cc(-c4cnc(C)nc4)cc13)C/C=C\CCCC(=O)NC[C@@]13C[C@@H](C(=O)Nc4nc(Br)ccc4C)N(C(=O)C2)[C@@H]1C3
Found: > 6.00
